- procedure details: xn = mol fraction of the nth substance listed, in the solute-free solvent
- condition details: 278.15 K; x2 = 0.5
measured attribute: solubility (g/100 g solution)
One number for each entry.

Consider the reported solubility (g/100 g solution) for these compounds:
S=c1[nH]ncs1 + CCO + O
6.64
S=c1[nH]ncs1 + CCCO + O
7.02
CCCCCOC(=O)Nc1nc(=O)n(C2OC(C)C(O)C2O)cc1F (stereo not drawn) + CCOC(C)=O + CCCCCCC
0.0862
Cc1ncc(C[n+]2csc(CCO)c2C)c(N)n1.O=[N+]([O-])[O-] + O + CO
0.884

Consider the following items and state reported solubility (g/100 g solution) for each.
1. S=c1[nH]ncs1 + CC(C)=O + O
2. Cc1ncc(C[n+]2csc(CCO)c2C)c(N)n1.O=[N+]([O-])[O-] + O + CC(C)=O
3. Cc1ncc(C[n+]2csc(CCO)c2C)c(N)n1.O=[N+]([O-])[O-] + O + CC(C)O
4. S=c1[nH]ncs1 + CO + O

19.8
0.394
0.228
3.89

Values were extracted from the CheMixHub drug solubility set.
